Test: Acute toxicity test on second-instar brine shrimp (survival/mortality)
Conditions: brine shrimp (Artemia), in vivo, other: immersion in the water sample in culture wells
Protocol: S1, anhydrous freeze-dried eggs of a brine shrimp are hatched in artificial seawater to obtain a first-instar brine shrimp, where, a hatching temperature is (26±1)° C., the hatching is performed under a continuous aeration for a hatching time of (10-24) h, and an aeration gas source is air. After the hatching is finished, the first-instar brine shrimp and non-hatched brine shrimp eggs are separated immediately, and the first-instar brine shrimp is placed in the artificial seawater. […]
readoutName: LC50 at 54 h (µM)
Answers are plain numbers, in µM.

Recorded LC50 at 54 h (molecule O=C(O)CI [IAA, iodoacetic acid] ): 1050

----------
assay: Acute toxicity test on second-instar brine shrimp (survival/mortality); details: brine shrimp (Artemia), in vivo, other: immersion in the water sample in culture wells
readoutName: LC50 at 48 h
For clarity, give the value followed by its unit.

LC50 at 48 h recorded for this compound, NC(=O)CI [IAM, iodoacetamide] , is 557 µM
